Tested on: HCT116
experiment: efficacy (fitted maximal change in viability relative to DMSO control); higher = less cytotoxic (negative = loss of viability)
experimental.context: 48 h
The threshold is inclusive: efficacy of exactly -80% counts as criterion met; values below receive criterion not met.

Some entries whose results are on file:
1) CC(C)c1ccc2c(c1)c(SC(C)(C)C)c(CC(C)(C)C(=O)[O-])n2Cc1ccc(Cl)cc1
criterion not met
2) O=C(O)C(=O)c1cn(Cc2ccccc2)c2ccc(-c3ccc(OC(F)(F)F)cc3)cc12
criterion met
3) N#Cc1cccc(-c2c[nH]c3ncnc(N4CCOCC4)c23)c1
criterion met
4) COc1cc2ncnc(Nc3cc(Br)c(O)c(Br)c3)c2cc1OC
criterion met
5) C/C(NNC(=O)c1cccc([S+](=O)([O-])N2CCOCC2)c1)=C1\C=C(Cl)C=CC1=O
criterion met
6) CC(C)NC[C@@H](C(=O)N1CCN(c2ncnc3c2[C@H](C)C[C@H]3O)CC1)c1ccc(Cl)cc1
criterion not met
7) CN(Cc1cnc2nc(N)nc(N)c2n1)c1ccc(C(=O)N[C@@H](CCC(=O)O)C(=O)O)cc1 [Methotrexate]
criterion not met
8) COc1cc2c(Nc3ccc(Cl)c(Cl)c3F)ncnc2cc1OC[C@@H]1C[C@@H]2CN(C)C[C@@H]2C1
criterion not met

Next up:
Challenge: Check this compound for efficacy at or above -80%: "O=C1Nc2ccc(Cl)cc2[C@@](C#CC2CC2)(C(F)(F)F)O1"
Response given: criterion not met

###

Listing of entries alongside the reported efficacy.
Tested on: HCT116
experiment: efficacy (fitted maximal change in viability relative to DMSO control); higher = less cytotoxic (negative = loss of viability)
experimental.context: 48 h
Reply with just the number (in %).

Previously resolved entries follow.
1. CC1(C)OCCn2c1nc1c(N3CCOCC3)nc(-c3cnc(N)nc3)nc12 [GDC-0084]
-58.4
2. COC1=C2C[C@H](C)C[C@H](OC)[C@H](O)[C@@H](C)/C=C(/C)[C@H](OC(N)=O)[C@@H](OC)/C=C\C=C(\C)C(=O)NC(=CC1=O)C2=O [Geldanamycin]
-57.3

Challenge: Item "O=C(O)c1ccc(CN2CCC(CN[C@@H]3C[C@H]3c3ccccc3)CC2)cc1" : provide efficacy
Response given: -14.1

Challenge: Item CC(C)C1CCC(C(=O)N[C@H](Cc2ccccc2)C(=O)O)CC1 (some centres undefined) [Nateglinide] : provide efficacy
Response given: -11

###

Listing of entries alongside the reported AC50 cell viability.
Test system: HCT116
experiment: AC50 cell viability (CellTiter-Glo); higher = less potent
experimental.context: 48 h
Reply with just the number (in µM).

1. Cc1c(CN2CCN(C(=O)[C@H](C)O)CC2)sc2c(N3CCOCC3)nc(-c3cnc(N)nc3)nc12
0.525

Challenge: Given "C[C@]12CC[C@@H]3c4ccc(O)cc4CC[C@H]3[C@@H]1CC[C@@H]2O" , report its AC50 cell viability on HCT116.
Response given: 20.9

Challenge: Given "CCC(=O)N1CCN(CC1)C2=C(C=C(C=C2)N3C(=O)\C=C/C4=C3C5=CC(=CC=C5N=C4)C6=CN=C7C=CC=CC7=C6)C(F)(F)F" , report its AC50 cell viability on HCT116.
Response given: 0.0723

Challenge: Given "O=C(NCc1ccc([S+](=O)([O-])c2cccc(C(F)(F)F)c2)cc1)c1cnc2[nH]ncc2c1" , report its AC50 cell viability on HCT116.
Response given: 0.0166

Challenge: Given "CCC(=C/[C@H](C)C/C=C/C(C)=C/[C@@H](C)C(=O)[C@@H](C)[C@H](O)[C@@H](C)C/C(C)=C/C(=O)O)/C=C/[C@@H]1OC(=O)C=C[C@@H]1C" , report its AC50 cell viability on HCT116.
Response given: 0.00372

Challenge: Given "COc1cc(C(=O)N2CCC(N3CCN(C)CC3)CC2)ccc1Nc1ncc2c(n1)N(C)c1ccccc1C(=O)N2C" , report its AC50 cell viability on HCT116.
Response given: 6.61

Challenge: Given CC(=O)C1CCC2C3CC\C4=C\C(=O)CCC4(C)C3CCC12C (stereo not given) , report its AC50 cell viability on HCT116.
Response given: 16.6

Challenge: Given "COC[C@H](NC(=O)c1cnc(C)s1)C(=O)N[C@@H](COC)C(=O)N[C@@H](Cc1ccccc1)C(=O)[C@@]1(C)CO1" , report its AC50 cell viability on HCT116.
Response given: 0.0742

Challenge: Given "C[C@@H]1CCNC(=O)c2cc3ccc(C(=O)Nc4nc5ccccc5n4CCCN(C)C)cc3n21" , report its AC50 cell viability on HCT116.
Response given: 11.8

Challenge: Given "CCN(CC)CCNC(=O)c1ccc2nc(-c3ccccc3)c(-c3ccc(CN4CCC(n5c(=O)[nH]c6ccccc65)CC4)cc3)nc2c1" , report its AC50 cell viability on HCT116.
Response given: 8.33

Challenge: Given "COC1=C(OC)C=C\2C(=C1)C(=O)N(CCCNCCO)\C3=C2C(=O)C4=C3C=C5OCOC5=C4" , report its AC50 cell viability on HCT116.
Response given: 4.17

Challenge: Given "CC(C)Nc1cc(-c2c[nH]c(C(=O)N[C@H](CO)c3cccc(Cl)c3)c2)c(Cl)cn1" , report its AC50 cell viability on HCT116.
Response given: 1.86

Challenge: Given "O=C(NCCCNc1nc(Nc2ccc(N3CCOCC3)cc2)ncc1C1CC1)C1CCC1" , report its AC50 cell viability on HCT116.
Response given: 5.9

Challenge: Given "Cc1nnn(C)c1-c1cnc2c3ccc(C(C)(C)O)cc3n([C@H](c3ccccc3)C3CCOCC3)c2c1" , report its AC50 cell viability on HCT116.
Response given: 0.0186

Challenge: Given "Cn1cc(-c2ccc3ncc(Cc4ccc5ncccc5c4)n3n2)cn1" , report its AC50 cell viability on HCT116.
Response given: 18.6

Challenge: Given "CCCC\1=C(/CNC(=O)C2=CC(=CC3=C2C=N[N]3C(C)C)C4=CC(=NC=C4)N5CCN(C)CC5)C(=O)NC(=C1)\C" , report its AC50 cell viability on HCT116.
Response given: 23.5

Challenge: Given "CN(C)Cc1cccc(N/C(=C2\C(=O)Nc3cc(C(=O)N(C)C)ccc32)c2ccccc2)c1" , report its AC50 cell viability on HCT116.
Response given: 13.2

Challenge: Given "COc1cc(N[S+](C)(=O)[O-])ccc1Nc1c2ccccc2nc2ccccc12" , report its AC50 cell viability on HCT116.
Response given: 11.8

Challenge: Given "CC(C)c1ccccc1Cc1cc(C(=O)Nc2ccc([S+](=O)([O-])c3ccccc3C(C)(C)C)cc2)c(O)c(O)c1O" , report its AC50 cell viability on HCT116.
Response given: 20.9
